Values from patent US20260242458A1

Target: T1, recombinant human IL-25 protein (human, UniProt Q9H293 33-177)
T1 sequence: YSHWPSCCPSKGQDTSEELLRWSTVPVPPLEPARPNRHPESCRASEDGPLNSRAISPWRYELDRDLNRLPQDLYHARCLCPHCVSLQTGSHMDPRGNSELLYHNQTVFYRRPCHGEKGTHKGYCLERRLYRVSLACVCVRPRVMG
Assay: cell-based or functional assay
readout: IC50, IL-25 induced NF-kB signaling (SEAP) in HEK-Blue IL-17 reporter cells (nM)
Please give a number only; it is taken to be in nM.

IL25Ab5 (antibody, V domains shown) VH: QVQLQQWGAGLLKPSETLSLTCAVYGGSFSAYYWSWIRQSPGKGLEWIGEINHGGNTNYSPSLKSRVTISVDTSKSQFSLKLSSVTAADTAAYYCARGPGITSWAFDFWDQGTMVTVSS VL: DIQMTQSPSSLSASVGDRVTIACQASQDINNYLNWYQQKPGKAPKLLIYDASNLETGVPSRFSGNGSGTDFTFTISSLQPEDIATFYCQQYDTLPYTFGQGTKLEIR: 0.061

Query binder follows.
# return recorded IC50, IL-25 induced NF-kB signaling (SEAP) in HEK-Blue IL-17 reporter cells for entry IL25Ab3 (antibody, V domains shown, detected with anti-human IgG or anti-human kappa reagents; also called anti-IL-25Ab3; mouse origin of anti-IL-25 specific antibody) VH: EVQLQQSGPELVKPGGSVRISCKASGYSFTGYTMNWVKQSHGKNLEWIGLINPDNGGTSHKQRFMGKATLTVDKSSSTAYMELLSLTSEDSAVYYCAREGYYGPSPFHHYAMDYWGQGTSVTVSS VL: DIQMTQTTSSLSASLGDRVTISCSASQDISNYLNWYQQKPDGTIKLLIYYTSTLHSGVPSRFSGSGSGTDYSLTISNLEPEDIATYYCQQYSKLPYTFGGGTKLEIK 0.049
